# System: HCC 2998
# experiment: Growth inhibition against colon cancer cell line HCC2998
# Type: functional
# condition details: Homo sapiens
assay endpoint: GI50 (µM)

given smiles | unit descriptor | GI50
Nc1ccc(-c2nc3ccccc3s2)cc1F | µM | 0.1

[P] Nc1ccc(-c2nc3ccc(F)cc3s2)cc1Cl
[Q] Nc1ccc(-c2nc3ccc(F)cc3s2)cc1
Incoming: Thinking about recorded GI50 values, which is higher, P or Q ? Pick one; state its label.
Outgoing: Q

----------
# experiment: Growth inhibition against ovarian cancer cell line IGROV1
# Type: functional
# condition details: Homo sapiens, IGROV-1
Listing of entries alongside the reported GI50.
Kindly answer with a numeric value in nM, unit omitted.

Solved entries (count: 3):
given smiles | unit descriptor | result
Cc1cc(-c2nc3c(F)cccc3s2)ccc1N | nM | 22900
Cc1cc(-c2nc3ccc(O)cc3s2)ccc1N | nM | 47900
Nc1ccc(-c2nc3ccccc3s2)cc1C(F)(F)F | nM | 2600

Incoming: Which measured GI50 value corresponds to "Nc1ccc(-c2nc3ccc(F)cc3s2)cc1" ?
Outgoing: 21300
